Experiment: gradient 5% acetonitrile 3 min, to 50% in 2 min, to 85% in 15 min, held 3 min, 100 µL/min
Conditions: column: Zorbax Extend-C18 2.1 x 50 mm; eluents: water / acetonitrile, 0.1% formic acid
Overview of reported RP-LC retention time across a group of compounds:
parameter measured: RP-LC retention time

In [3]: df
Out[3]:
                                    compound  result
 0  CCc1nc(N2CCC(C(=O)NCc3ccccc3C(F)(F)F)CC2)c2c(C)scc2n1   754 s
 1  COc1ccc(N2CC(c3nc(-c4cccc(OC)c4OC)no3)CC2=O)cc1 (stereo not given)   870 s
 2  COc1ccccc1NC(=O)N1CCC(n2cnc3ccccc3c2=O)CC1   736 s
 3  Cc1cc(=O)n(CC(=O)Nc2cccc(C)c2C)c(N(C)Cc2ccccc2)n1   794 s
 4  CC(NC(=O)c1cc2n(n1)CC(C)(C(=O)NC1CCCCC1)N(C)C2=O)c1ccccc1 (stereo not given)   800 s
 5  CCCNC(=O)C1c2ccccc2CCN1C(=O)C1CC1 (stereo not given)   725 s
 6  COc1cccc(-c2nc(-c3ccc4c(c3)oc(=O)n4C)no2)c1OC   959 s
 7  COC(=O)c1cc(S(=O)(=O)N2CCCC2C(=O)Nc2cccc3ccccc23)cn1C (stereo not given)   916 s
 8  CC(C)NC(=O)C1CCCCN1S(=O)(=O)c1ccc(Br)cc1 (stereo not given)   969 s
 9  COc1cc(C2CN(C(=O)c3ccc4c(c3)OCO4)CC2C(=O)NCCC(C)C)cc(OC)c1OC (stereo not given)   738 s
10           Cc1ccc(-c2csc(Nc3ccccc3C)n2)cc1  1240 s
11  CC(C)NC(=O)C1CCN(c2nc3ccc(-c4cccc(F)c4)nc3s2)CC1   942 s
12  CC1=C(C(=O)OCCCc2ccccc2)C(c2cccs2)NC(=O)N1 (stereo not given)   882 s
13  CCCc1ccc(S(=O)(=O)N2CCC(n3cnnc3C)CC2)cc1   767 s
14  COc1cc(NS(=O)(=O)c2ccc(-c3nnc(C4CCC4)o3)o2)cc(OC)c1   886 s
15  Cc1cccc(-n2c(=O)c3c(cc(C)n3C)n(CC(=O)Nc3cccc(C#N)c3)c2=O)c1   846 s
16            CCCNC(=O)c1cc(=O)[nH]c2ccccc12   620 s
17  Cc1noc2nc(C)n(CC(=O)NCc3ccccc3F)c(=O)c12   710 s
18  O=C(Cc1cccc(F)c1)N1CC(N2CC(C(=O)N3CCCC3)CC2=O)C1 (stereo not given)   648 s
19  Cn1c(=O)c(-c2ccc(C(=O)NCc3ccc4c(c3)OCO4)cc2)nc2cccnc21   872 s

Ref: the METLIN SMRT retention time set (Domingo-Almenara et al. 2019)
